The origin of these recorded values is ChEMBL document CHEMBL3045703.

- Tested on: Achaea janata
- methodNotes: Toxicity in third instar larvae of Achaea janata assessed as mortality at 4 ug/insect measured after 4 to 28 days by topical bioassay
- Format: functional
endpoint: mortality

Consider the following illustrative entries.
INSERT INTO measurements (entrysmiles, endpoint, result) VALUES
  ('CC[C@H](C)[C@H](NC(C)=O)C(=O)OCCNC1=C(C)C(=O)c2cccc(OC)c2C1=O', 'mortality', '<20%'),
  ('COc1cccc2c1C(=O)C(NCCOC(=O)[C@H](CS)NC(C)=O)=C(C)C2=O', 'mortality', '<20%'),
  ('COc1cccc2c1C(=O)C(NCCOC(=O)[C@H](CC(C)C)NC(C)=O)=C(C)C2=O', 'mortality', '<20%');

Task item: Give Achaea janata mortality for `COc1cccc2c1C(=O)C(NCCOC(=O)CCCNC(C)=O)=C(C)C2=O`
Reply: <20%

Task item: Notebook entry, Achaea janata assay: mortality of `CC1=CC(=O)c2c(O)cccc2C1=O` = ?
Reply: <20%

Task item: Lab note: need mortality with Achaea janata for entry `COc1cccc2c1C(=O)C(NCCOC(=O)[C@H](C)NC(C)=O)=C(C)C2=O` , please look it up.
Reply: <20%

Task item: Record lookup: for Achaea janata, what mortality belongs to `COc1cccc2c1C(=O)C(NCCOC(=O)c1ccc(NC(C)=O)cc1)=C(C)C2=O` ?
Reply: <20%
